For each of the molecules below, state its log10 IC50.
# Tested System: human cathepsin K (UniProt P43236, Y175D/V274L, species not given)
# Assay Protocol: Cathepsin K Assay
# Format: biochemical
# Assay Context: IP from dose response curve; Z-Leu-Arg-AMC substrate, pH 5.5; read-out: hrbCat K (IP (nM))
Scale: decimal log of IC50, IC50 in nM.

Reference set (5 entries):
N#CC1(NC(=O)[C@@H]2CCCC[C@H]2c2nn(-c3ccc(F)cc3)cc2-c2ccc(C(=O)N3CCNC(=O)C3)cc2)CC1 ... 0.97
N#Cc1cccc(-n2cc(-c3ccc(N4CCS(=O)(=O)CC4)cc3)c([C@@H]3CCCC[C@H]3C(=O)NC3(C#N)CC3)n2)c1 ... 0.00
N#CCNC(=O)[C@H]1CC(F)(F)CC[C@@H]1c1nn(-c2ccc(F)cc2)cc1-c1ccc(N2CCS(=O)(=O)CC2)cc1 ... 2.16
CC(C)[C@@H](C#N)NC(=O)[C@@H]1CCC(F)(F)C[C@H]1c1nn(-c2ncccc2F)cc1-c1ccc(N2CCS(=N)(=O)CC2)cc1 ... 0.99
N#CC1(NC(=O)[C@@H]2CC3CC3C[C@H]2c2nn(-c3ccc(Cl)cn3)cc2-c2ccc(N3CCS(=O)(=O)CC3)cc2)CC1 (single isomer, unassigned) [Example 155] ... -0.25

Shifting focus to the molecule that follows.
Item: CC(C)[C@@H](C#N)NC(=O)[C@@H]1CCC(F)(F)C[C@H]1c1nn(-c2ncccc2F)cc1-c1ccc(N2CCS(=O)(=O)CC2)cc1 | log10 IC50: 0.85
